Observed AC50 for Gamma-aminobutyric acid receptor subunit alpha-1 (Rattus norvegicus), reported per entry below.

Example entries begin here.
CN1CC(=O)N2[C@H](c3ccc4c(c3)OCO4)c3[nH]c4ccccc4c3C[C@@H]2C1=O	> 10 µM
NS(=O)(=O)c1cc2c(cc1Cl)NC(CC1CCCC1)NS2(=O)=O (stereo not drawn) [CYCLOPENTHIAZIDE]	> 30 µM

Give AC50 for each listed item.
1. COC(=O)N[C@H](C(=O)N1CCC[C@H]1c1nc(-c2ccc(-c3ccc(-c4c[nH]c([C@@H]5CCCN5C(=O)[C@@H](NC(=O)OC)C(C)C)n4)cc3)cc2)c[nH]1)C(C)C
2. CNC(=O)c1cc(Oc2ccc(NC(=O)Nc3ccc(Cl)c(C(F)(F)F)c3)cc2)ccn1
3. O=C1NCCN1CCN1CCC(c2cn(-c3ccc(F)cc3)c3ccc(Cl)cc23)CC1
4. NC1=NC(=O)C(c2ccccc2)O1 (stereo not drawn)
5. O=C(C[S+]([O-])C(c1ccccc1)c1ccccc1)NO (stereo not drawn)
6. Cc1cc2c(OCC(CNC(C)(C)C)OC(=O)c3ccccc3)cccc2[nH]1 (stereo not drawn)

**A:**
1: > 30 µM; 2: > 30 µM; 3: > 30 µM; 4: > 10 µM; 5: > 30 µM; 6: > 30 µM

====

For each entry below, report its AC50 value.
molecular target: 5-hydroxytryptamine receptor 2A (Homo sapiens, UniProt P28223); type: functional, cell-based; note: assay procedure not described here
Sequence (P28223 whole entry): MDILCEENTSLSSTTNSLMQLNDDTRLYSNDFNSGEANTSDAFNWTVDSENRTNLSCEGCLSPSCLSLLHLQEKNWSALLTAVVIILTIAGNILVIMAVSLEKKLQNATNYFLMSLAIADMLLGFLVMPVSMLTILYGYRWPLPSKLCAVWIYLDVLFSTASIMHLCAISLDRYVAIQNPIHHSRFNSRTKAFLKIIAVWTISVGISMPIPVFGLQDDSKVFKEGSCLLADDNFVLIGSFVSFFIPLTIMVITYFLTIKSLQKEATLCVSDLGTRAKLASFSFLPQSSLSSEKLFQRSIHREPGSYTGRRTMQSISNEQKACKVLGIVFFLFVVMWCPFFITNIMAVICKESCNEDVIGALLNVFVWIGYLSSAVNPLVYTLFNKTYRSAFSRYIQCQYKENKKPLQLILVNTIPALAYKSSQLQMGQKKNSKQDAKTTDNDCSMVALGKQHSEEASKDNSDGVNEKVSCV

Give AC50 for each listed item.
1. C#C[C@]1(O)CC[C@H]2[C@@H]3CCC4=CCCC[C@@H]4[C@H]3CC[C@@]21C [LYNESTRENOL]
2. CN1C(=O)N(C)C2C1N(C)C(=O)N2C (centres undefined) [MEBICAR]
3. CN1C(=O)CC(c2ccccc2)C1=O (centres undefined) [PHENSUXIMIDE]
4. CCOc1cc(N)c([N+](=O)[O-])cc1C(=O)NC1CCN(CC2CC=CCC2)CC1 (centres undefined) [CINITAPRIDE]
5. CCOC(=O)[C@H](CCc1ccccc1)N[C@H]1CCCN2CCC[C@@H](C(=O)O)N2C1=O [CILAZAPRIL]

**A:**
1: > 30 µM; 2: > 30 µM; 3: > 10 µM; 4: 0.07 µM; 5: > 30 µM

Give AC50 for each listed item.
1. CN1CC[C@]23CCCC[C@H]2[C@H]1Cc1ccc(O)cc13 [LEVORPHANOL]
2. CCCCCCC(C)(C)c1cc(O)c2c(c1)OC(C)(C)C1CCC(=O)CC21 (centres undefined) [NABILONE]
3. CN1CCc2cccc3c2[C@H]1Cc1ccc(O)c(O)c1-3 [APOMORPHINE]
4. Nc1ccc(/N=N/c2ccccc2)c(N)n1 [PHENAZOPYRIDINE]

**A:**
1. > 10 µM
2. > 30 µM
3. 1.79 µM
4. > 30 µM

====

target: Voltage-dependent L-type calcium channel subunit alpha-1C (Rattus norvegicus); type: functional; note: assay procedure not described here
Sequence (P22002 whole entry): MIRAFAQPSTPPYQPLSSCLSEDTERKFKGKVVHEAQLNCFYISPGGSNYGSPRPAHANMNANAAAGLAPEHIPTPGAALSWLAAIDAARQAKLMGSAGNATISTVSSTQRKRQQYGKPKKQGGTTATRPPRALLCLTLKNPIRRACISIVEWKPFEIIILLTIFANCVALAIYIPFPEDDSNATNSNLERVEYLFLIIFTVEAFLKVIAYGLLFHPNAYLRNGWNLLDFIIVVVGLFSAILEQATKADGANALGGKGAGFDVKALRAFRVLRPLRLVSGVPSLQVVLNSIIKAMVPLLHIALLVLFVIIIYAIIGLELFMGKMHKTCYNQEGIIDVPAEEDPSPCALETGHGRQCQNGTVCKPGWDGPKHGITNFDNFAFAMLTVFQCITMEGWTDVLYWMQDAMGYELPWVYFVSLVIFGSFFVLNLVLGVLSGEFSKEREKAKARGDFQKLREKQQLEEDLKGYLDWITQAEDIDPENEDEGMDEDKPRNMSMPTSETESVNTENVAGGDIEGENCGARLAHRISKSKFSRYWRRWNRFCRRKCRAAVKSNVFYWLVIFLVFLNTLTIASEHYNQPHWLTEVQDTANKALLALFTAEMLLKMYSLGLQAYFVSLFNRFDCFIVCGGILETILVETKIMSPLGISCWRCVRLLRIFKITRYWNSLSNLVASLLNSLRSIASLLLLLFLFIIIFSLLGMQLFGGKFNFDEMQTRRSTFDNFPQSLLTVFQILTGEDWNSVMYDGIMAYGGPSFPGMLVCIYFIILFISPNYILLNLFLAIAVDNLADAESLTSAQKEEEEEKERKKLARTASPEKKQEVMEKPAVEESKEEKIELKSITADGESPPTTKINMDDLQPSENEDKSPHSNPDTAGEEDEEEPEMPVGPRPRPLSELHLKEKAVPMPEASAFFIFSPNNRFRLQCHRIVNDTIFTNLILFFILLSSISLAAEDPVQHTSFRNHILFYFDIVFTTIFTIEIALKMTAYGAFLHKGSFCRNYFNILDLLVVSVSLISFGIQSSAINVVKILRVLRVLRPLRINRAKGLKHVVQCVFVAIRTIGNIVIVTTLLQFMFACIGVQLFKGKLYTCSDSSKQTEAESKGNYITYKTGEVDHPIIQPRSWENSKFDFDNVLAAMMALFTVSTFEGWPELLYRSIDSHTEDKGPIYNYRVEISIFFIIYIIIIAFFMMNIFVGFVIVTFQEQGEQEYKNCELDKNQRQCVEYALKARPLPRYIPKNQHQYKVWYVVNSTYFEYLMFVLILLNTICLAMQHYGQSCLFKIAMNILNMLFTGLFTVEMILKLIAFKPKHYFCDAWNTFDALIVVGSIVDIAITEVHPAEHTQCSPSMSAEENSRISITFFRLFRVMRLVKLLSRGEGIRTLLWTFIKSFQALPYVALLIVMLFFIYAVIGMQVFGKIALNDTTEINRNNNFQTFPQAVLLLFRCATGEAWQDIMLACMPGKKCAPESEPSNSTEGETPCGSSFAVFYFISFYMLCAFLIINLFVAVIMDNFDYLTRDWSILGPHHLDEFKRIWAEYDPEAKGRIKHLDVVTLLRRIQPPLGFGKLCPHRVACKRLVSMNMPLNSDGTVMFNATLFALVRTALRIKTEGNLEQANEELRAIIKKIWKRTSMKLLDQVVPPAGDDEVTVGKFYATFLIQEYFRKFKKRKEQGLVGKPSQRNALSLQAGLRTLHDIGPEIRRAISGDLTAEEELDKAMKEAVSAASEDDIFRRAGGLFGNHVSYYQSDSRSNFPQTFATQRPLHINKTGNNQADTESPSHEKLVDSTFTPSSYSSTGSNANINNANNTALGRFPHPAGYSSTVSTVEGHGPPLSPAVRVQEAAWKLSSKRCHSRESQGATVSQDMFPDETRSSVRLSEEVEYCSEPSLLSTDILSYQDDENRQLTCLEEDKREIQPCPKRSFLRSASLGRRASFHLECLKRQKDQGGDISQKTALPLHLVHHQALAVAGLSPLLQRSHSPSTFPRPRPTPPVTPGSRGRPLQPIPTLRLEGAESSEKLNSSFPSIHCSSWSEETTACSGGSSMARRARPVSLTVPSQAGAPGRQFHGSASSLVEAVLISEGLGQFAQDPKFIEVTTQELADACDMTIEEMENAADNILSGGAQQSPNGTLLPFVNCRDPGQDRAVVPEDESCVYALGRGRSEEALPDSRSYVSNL
RECORDED METRIC: AC50

Example entries begin here.
CN1C(=O)CC(c2ccccc2)C1=O (configuration not stated) [PHENSUXIMIDE]	> 10 µM
CC(C)NCC(O)COc1ccc(COCCOC(C)C)cc1 (configuration not stated)	> 10 µM
CN[C@@H](C)[C@H](O)c1ccccc1	> 10 µM
CN1CCN(C(=O)OC2c3nccnc3C(=O)N2c2ccc(Cl)cn2)CC1 (configuration not stated)	> 10 µM
Cc1cc2c(OCC(CNC(C)(C)C)OC(=O)c3ccccc3)cccc2[nH]1 (configuration not stated)	> 30 µM

Give AC50 for each listed item.
1. Cc1nc2ccc(CN(C)c3ccc(C(=O)N[C@@H](CCC(=O)O)C(=O)O)s3)cc2c(=O)[nH]1
2. CC(C)c1c(C(=O)Nc2ccccc2)c(-c2ccccc2)c(-c2ccc(F)cc2)n1CC[C@@H](O)C[C@@H](O)CC(=O)O

**A:**
["> 30 µM", "> 10 µM"]

Give AC50 for each listed item.
1. CCC1(C2=CCCCCC2)C(=O)NC(=O)NC1=O
2. O=P(O)(O)C(O)(Cc1cccnc1)P(=O)(O)O
3. CN[C@@H]1[C@H](O)[C@H](NC)[C@H]2O[C@@]3(O)C(=O)C[C@@H](C)O[C@H]3O[C@@H]2[C@H]1O

**A:**
1: > 10 µM; 2: > 30 µM; 3: > 10 µM

Give AC50 for each listed item.
1. CN1CCCN=C1COC(=O)C(O)(c1ccccc1)C1CCCCC1 (configuration not stated)
2. Cc1cc(-c2ccccc2)nnc1NCCN1CCOCC1

**A:**
1. > 10 µM
2. > 10 µM

Give AC50 for each listed item.
1. CCN1CCC[C@H]1CNC(=O)c1cc(S(N)(=O)=O)ccc1OC [LEVOSULPIRIDE]
2. CC(=O)N[C@H]1[C@H]([C@H](O)[C@H](O)CO)OC(C(=O)O)=C[C@@H]1N=C(N)N
3. COC(=O)N[C@H](C(=O)N[C@@H](Cc1ccccc1)[C@@H](O)CN(Cc1ccc(-c2ccccn2)cc1)NC(=O)[C@@H](NC(=O)OC)C(C)(C)C)C(C)(C)C

**A:**
1: > 10 µM; 2: > 30 µM; 3: > 10 µM

Give AC50 for each listed item.
1. NC(=O)C[S+]([O-])C(c1ccccc1)c1ccccc1 (configuration not stated)
2. C#C[C@]1(O)CC[C@H]2[C@@H]3CCC4=CCCC[C@@H]4[C@H]3CC[C@@]21C

**A:**
> 10 µM
> 30 µM
